Test System: SMARCA2-HiBiT HeLa cells (protein which is expressed from the SMARCA2 gene) (Homo sapiens, UniProt P51531)
Construct: protein which is expressed from the SMARCA2 and SMARCA4 genes; host or cells: HeLa (SMARCA2-HiBiT engineered line)
Sequence (P51531 whole entry): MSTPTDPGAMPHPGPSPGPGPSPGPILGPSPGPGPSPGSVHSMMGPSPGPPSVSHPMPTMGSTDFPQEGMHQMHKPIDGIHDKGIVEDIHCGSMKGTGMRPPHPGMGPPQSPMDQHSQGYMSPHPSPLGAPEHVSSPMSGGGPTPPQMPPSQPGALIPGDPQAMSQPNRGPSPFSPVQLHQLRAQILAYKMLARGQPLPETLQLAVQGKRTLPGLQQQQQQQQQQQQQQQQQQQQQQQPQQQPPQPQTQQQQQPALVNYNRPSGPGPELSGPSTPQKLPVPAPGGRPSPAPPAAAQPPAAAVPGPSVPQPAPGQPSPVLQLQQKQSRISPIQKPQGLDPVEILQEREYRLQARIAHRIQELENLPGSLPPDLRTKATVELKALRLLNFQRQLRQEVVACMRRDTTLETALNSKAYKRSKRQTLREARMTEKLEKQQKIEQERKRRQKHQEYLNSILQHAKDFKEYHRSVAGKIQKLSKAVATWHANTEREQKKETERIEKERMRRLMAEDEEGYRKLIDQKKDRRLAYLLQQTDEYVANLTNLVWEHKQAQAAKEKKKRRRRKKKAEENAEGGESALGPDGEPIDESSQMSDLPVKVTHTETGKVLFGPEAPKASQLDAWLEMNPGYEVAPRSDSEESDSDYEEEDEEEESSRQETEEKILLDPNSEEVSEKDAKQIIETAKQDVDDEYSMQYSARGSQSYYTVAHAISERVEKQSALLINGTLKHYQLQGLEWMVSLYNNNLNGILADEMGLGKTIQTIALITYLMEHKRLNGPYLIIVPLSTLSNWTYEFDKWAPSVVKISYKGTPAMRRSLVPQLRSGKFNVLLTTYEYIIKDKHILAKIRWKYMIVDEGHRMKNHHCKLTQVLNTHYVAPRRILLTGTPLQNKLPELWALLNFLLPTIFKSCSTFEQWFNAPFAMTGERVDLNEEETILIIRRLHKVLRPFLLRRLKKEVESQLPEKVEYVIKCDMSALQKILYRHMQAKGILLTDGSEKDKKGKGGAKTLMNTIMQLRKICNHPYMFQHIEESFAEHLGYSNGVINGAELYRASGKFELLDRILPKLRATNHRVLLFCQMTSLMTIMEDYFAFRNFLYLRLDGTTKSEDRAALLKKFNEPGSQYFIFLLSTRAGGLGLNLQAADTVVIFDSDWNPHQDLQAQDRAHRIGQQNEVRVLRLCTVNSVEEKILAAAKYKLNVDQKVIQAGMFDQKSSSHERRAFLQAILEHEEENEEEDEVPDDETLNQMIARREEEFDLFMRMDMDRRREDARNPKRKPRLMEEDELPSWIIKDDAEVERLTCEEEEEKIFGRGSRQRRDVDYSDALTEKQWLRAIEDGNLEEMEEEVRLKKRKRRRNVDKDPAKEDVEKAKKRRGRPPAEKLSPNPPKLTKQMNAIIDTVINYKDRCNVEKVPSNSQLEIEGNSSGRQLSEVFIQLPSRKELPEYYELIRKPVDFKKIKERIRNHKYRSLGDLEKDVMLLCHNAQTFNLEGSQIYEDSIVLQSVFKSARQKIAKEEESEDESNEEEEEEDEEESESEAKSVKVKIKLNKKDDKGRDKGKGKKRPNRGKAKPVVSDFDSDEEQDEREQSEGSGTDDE
Assay Comment: SMARCA2 degradation assay (HiBiT-fusion HeLa cell line, 24 h, luminescence)
Assay type: cell-based
Test Parameters: @ 1 μM
Property Label: SMARCA2 % Degradation @ 1 μM

[[record]]
compound = "Cc1cnc(C#CCn2ccnc2)nc1N1CCN(c2cc(-c3ccccc3O)nnc2N)CC[C@H]1C [Compound P-227]"
result_value = "+++ (+++=>70%)"

[[record]]
compound = "COC1CCN(CC#Cc2nccc(N3CCCN(c4cc(-c5ccccc5O)nnc4N)CC3)n2)CC1 [Compound P-378]"
result_value = "+++ (+++=>70%)"

[[record]]
compound = "CNCC#Cc1nccc(N2CCN(c3cc(-c4ccccc4O)nnc3N)CC[C@H]2C)n1 [Compound P-297]"
result_value = "++ (++=30-70%)"

[[record]]
compound = "Nc1nnc(-c2ccccc2O)cc1N1CCCN(c2ccnc(C#CCNc3cc4ncccn4n3)n2)CC1 [Compound P-120]"
result_value = "++ (++=30-70%)"

[[record]]
compound = "Nc1nnc(-c2ccccc2O)cc1N1CCN(c2ccnc(C#CCNC(=O)c3cccc4ccoc34)n2)CC1 [Compound P-63]"
result_value = "++ (++=30-70%)"

[[record]]
compound = "Cn1cc(C#Cc2nccc(N3CCCN(c4cc(-c5ccccc5O)nnc4N)CC3)n2)cn1 [Compound P-346]"
result_value = "++ (++=30-70%)"

[[record]]
compound = "Cc1c(C(=O)NCC#Cc2nccc(N3CCN(c4cc(-c5ccccc5O)nnc4N)CC[C@H]3C)n2)nn(C)c1C [Compound P-239]"
result_value = "++ (++=30-70%)"

[[record]]
compound = "Nc1nnc(-c2ccccc2O)cc1N1CCCN(c2ccnc(C#CCNC(=O)OCC(F)(F)F)n2)CC1 [Compound P-339]"
result_value = "+++ (+++=>70%)"

[[record]]
compound = "Nc1nnc(-c2ccccc2O)cc1OC1CC2CN(c3ccnc(C#CCn4ccnc4)n3)CC2C1 (stereo not drawn) [Compound P-219]"
result_value = "+++ (+++=>70%)"

[[record]]
compound = "Nc1nnc(-c2ccccc2O)cc1N1C2CCC1CN(c1ccnc(C#CCNC(=O)c3cc4ncccn4n3)n1)C2 [Compound P-78]"
result_value = "+++ (+++=>70%)"

[[record]]
compound = "Cc1c(C(=O)NCC#Cc2nccc(N3CCN(c4cc(-c5ccccc5O)nnc4N)CC3)n2)nn(C)c1C [Compound P-8]"
result_value = "++ (++=30-70%)"

[[record]]
compound = "CN(C)CC#Cc1nccc(N2CCCN(c3cc(-c4ccccc4O)nnc3N)CC2)n1 [Compound P-152]"
result_value = "+++ (+++=>70%)"

[[record]]
compound = "Nc1nnc(-c2ccccc2O)cc1N1CCCN(c2ccnc(C#CCN[C@@H]3CCOC3)n2)CC1 [Compound P-273]"
result_value = "+++ (+++=>70%)"

[[record]]
compound = "CNCC#Cc1nccc(N2CCCN(c3cc(-c4ccccc4O)nnc3N)CC2)n1 [Compound P-147]"
result_value = "++ (++=30-70%)"


====

Test System: SMARCA4-HiBiT HeLa cells (protein which is expressed from the SMARCA4 gene) (Homo sapiens, UniProt P51532)
Construct: protein which is expressed from the SMARCA2 and SMARCA4 genes; host or cells: HeLa (SMARCA4-HiBiT engineered line)
Sequence (P51532 whole entry): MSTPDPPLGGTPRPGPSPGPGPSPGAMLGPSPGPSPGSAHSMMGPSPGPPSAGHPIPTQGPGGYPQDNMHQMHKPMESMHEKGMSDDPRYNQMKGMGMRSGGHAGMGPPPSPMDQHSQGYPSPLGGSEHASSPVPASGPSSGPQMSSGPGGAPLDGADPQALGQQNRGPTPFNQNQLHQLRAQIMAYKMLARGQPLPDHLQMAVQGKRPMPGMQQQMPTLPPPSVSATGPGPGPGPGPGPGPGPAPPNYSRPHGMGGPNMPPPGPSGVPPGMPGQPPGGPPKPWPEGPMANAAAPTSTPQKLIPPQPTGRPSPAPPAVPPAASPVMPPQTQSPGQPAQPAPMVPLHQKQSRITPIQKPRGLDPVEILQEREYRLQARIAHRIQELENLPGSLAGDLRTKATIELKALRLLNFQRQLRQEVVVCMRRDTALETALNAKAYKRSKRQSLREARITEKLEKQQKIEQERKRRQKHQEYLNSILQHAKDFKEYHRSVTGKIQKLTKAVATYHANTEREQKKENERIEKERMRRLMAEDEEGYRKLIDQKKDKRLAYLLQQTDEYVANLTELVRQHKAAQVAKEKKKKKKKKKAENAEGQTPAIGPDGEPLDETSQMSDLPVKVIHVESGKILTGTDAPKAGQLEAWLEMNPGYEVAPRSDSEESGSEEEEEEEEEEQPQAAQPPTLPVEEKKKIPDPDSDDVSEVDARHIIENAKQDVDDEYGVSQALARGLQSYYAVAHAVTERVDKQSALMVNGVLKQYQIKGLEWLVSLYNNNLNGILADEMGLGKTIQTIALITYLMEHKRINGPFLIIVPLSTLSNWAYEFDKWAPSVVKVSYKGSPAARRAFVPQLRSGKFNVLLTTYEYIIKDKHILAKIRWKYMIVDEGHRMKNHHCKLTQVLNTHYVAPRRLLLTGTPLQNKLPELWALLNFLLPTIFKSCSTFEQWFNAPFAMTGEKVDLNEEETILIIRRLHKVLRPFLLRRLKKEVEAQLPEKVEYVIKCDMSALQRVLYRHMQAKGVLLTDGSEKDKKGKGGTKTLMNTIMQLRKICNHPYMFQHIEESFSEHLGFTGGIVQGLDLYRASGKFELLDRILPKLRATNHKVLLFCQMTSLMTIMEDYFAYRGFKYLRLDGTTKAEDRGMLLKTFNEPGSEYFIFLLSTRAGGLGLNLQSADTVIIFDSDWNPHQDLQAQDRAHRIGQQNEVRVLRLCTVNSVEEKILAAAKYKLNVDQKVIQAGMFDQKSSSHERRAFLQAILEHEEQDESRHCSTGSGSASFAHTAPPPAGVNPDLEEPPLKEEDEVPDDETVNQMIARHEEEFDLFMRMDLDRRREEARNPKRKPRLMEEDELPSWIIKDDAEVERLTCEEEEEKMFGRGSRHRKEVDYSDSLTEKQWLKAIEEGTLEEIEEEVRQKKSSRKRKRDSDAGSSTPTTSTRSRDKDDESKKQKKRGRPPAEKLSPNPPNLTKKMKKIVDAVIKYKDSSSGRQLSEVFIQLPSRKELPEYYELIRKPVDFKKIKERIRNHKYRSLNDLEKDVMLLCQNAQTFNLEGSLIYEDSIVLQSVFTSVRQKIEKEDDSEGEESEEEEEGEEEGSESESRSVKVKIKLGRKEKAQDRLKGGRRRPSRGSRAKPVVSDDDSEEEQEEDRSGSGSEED
Assay Comment: SMARCA4 degradation assay (HiBiT-fusion HeLa cell line, 24 h, luminescence)
Format: cell-based
Test Parameters: @ 1 μM
This section presents compounds with their documented inhibition at 1 µM values.
Property Label: inhibition at 1 µM

[[record]]
compound = "C[C@@H]1CCN(c2cc(-c3ccccc3O)nnc2N)CCN1c1ccnc(C#C[C@H](O)C2CC2)n1 [Compound P-266]"
result_value = "30 to 70%"

[[record]]
compound = "Nc1nnc(-c2ccccc2O)cc1N1CC2CCC(C1)N2c1ccnc(C#CCn2cccn2)n1 [Compound P-133]"
result_value = "30 to 70%"

[[record]]
compound = "Nc1nnc(-c2ccccc2O)cc1N1CC2CCC(C1)N2c1ccnc(C#CCCNC(=O)c2cc3ncccn3n2)n1 [Compound P-96]"
result_value = "> 70%"

[[record]]
compound = "Cn1cc(C#Cc2nccc(N3CCCN(c4cc(-c5ccccc5O)nnc4N)CC3)n2)cn1 [Compound P-346]"
result_value = "< 30%"

[[record]]
compound = "Cc1nn2ccn(CC#Cc3nccc(N4CCN(c5cnnc(-c6ccccc6O)c5)CC[C@H]4C)n3)c(=O)c2c1C [Compound P-235]"
result_value = "< 30%"

[[record]]
compound = "CC(C)(C)OC(=O)NCC#Cc1nccc(N2CC3CC(Oc4cc(-c5ccccc5O)nnc4N)CC3C2)n1 (stereo not drawn) [Compound P-221]"
result_value = "> 70%"

[[record]]
compound = "CC1CN(c2ccnc(C#CCN)n2)CCCN1c1cc(-c2ccccc2O)nnc1N (stereo not drawn) [Compound P-40]"
result_value = "< 30%"

[[record]]
compound = "C[C@@H]1CCN(c2cc(-c3ccccc3O)nnc2N)CCN1c1ccnc(C#CCN2CCC3(CCC3)C2)n1 [Compound P-237]"
result_value = "30 to 70%"

[[record]]
compound = "COCC#Cc1nccc(N2CCCN(c3cc(-c4ccccc4O)nnc3N)CC2)n1 [Compound P-342]"
result_value = "30 to 70%"

[[record]]
compound = "CC(C)(C)OC(=O)N1CCC(C#Cc2nccc(N3CCCN(c4cc(-c5ccccc5O)nnc4N)CC3)n2)CC1 [Compound P-351]"
result_value = "30 to 70%"

[[record]]
compound = "C[C@@H]1CCN(c2cc(-c3ccccc3O)nnc2N)CCN1c1nc(C#CCN2CCCC2=O)ncc1F [Compound P-203]"
result_value = "30 to 70%"

[[record]]
compound = "Nc1nnc(-c2ccccc2O)cc1N1CC2CCC(C1)N2c1ccnc(C#CCn2nnc3ccccc32)n1 [Compound P-132]"
result_value = "30 to 70%"

[[record]]
compound = "Nc1nnc(-c2ccccc2O)cc1N1CCN(c2ccnc(C#CCNC(=O)c3cc4n(n3)CCCC4)n2)CC1 [Compound P-69]"
result_value = "30 to 70%"

[[record]]
compound = "CCOc1cc(N2CCCN(c3cc(-c4ccccc4O)nnc3N)CC2)nc(C#CCNC(=O)c2cc3ncccn3n2)n1 [Compound P-124]"
result_value = "> 70%"

[[record]]
compound = "Nc1nnc(-c2ccccc2O)cc1N1CCCC2C1CCN2c1ccnc(C#CCNC(=O)c2cc3ncccn3n2)n1 (stereo not drawn) [Compound P-79]"
result_value = "30 to 70%"


====

This section presents molecules with their documented DC50 values.
Test System: SMARCA4-HiBiT HeLa cells (protein which is expressed from the SMARCA4 gene) (Homo sapiens)
Construct: protein which is expressed from the SMARCA2 and SMARCA4 genes; host or cells: HeLa (SMARCA4-HiBiT engineered line)
Assay Comment: SMARCA4 degradation assay (HiBiT-fusion HeLa cell line, 24 h, luminescence)
Type: cell-based
Property Label: DC50

[[record]]
molecule = "Nc1nnc(-c2ccccc2O)cc1N1CC2CCC(C1)N2c1ccnc(C#CCn2cncn2)n1 [Compound P-289]"
result_value = "50 to 500 nM"

[[record]]
molecule = "C[C@@H]1CCN(c2cc(-c3ccccc3O)nnc2N)CCN1c1ccnc(C#CC23CCC(C2)N3)n1 (stereo partly drawn) [Compound P-196]"
result_value = "500 to 5000 nM"

[[record]]
molecule = "Nc1nnc(-c2ccccc2O)cc1N1CCN(c2ccnc(C#CCNC(=O)c3nc4ccccc4s3)n2)CC1 [Compound P-118]"
result_value = "50 to 500 nM"

[[record]]
molecule = "C[C@@H]1CCN(c2cc(-c3ccccc3O)nnc2N)CCN1c1ccnc(C#CCN2CC(F)C2)n1 [Compound P-230]"
result_value = "50 to 500 nM"

[[record]]
molecule = "Nc1nnc(-c2ccccc2O)cc1N1CCCN(c2ccnc(C#CCN3CCn4nccc4C3)n2)CC1 [Compound P-146]"
result_value = "50 to 500 nM"

[[record]]
molecule = "Nc1nnc(-c2ccccc2O)cc1N1CCC2(CCCN(c3ccnc(C#CCNC(=O)c4cc5ncccn5n4)n3)C2)CC1 [Compound P-35]"
result_value = "50 to 500 nM"

[[record]]
molecule = "C[C@H]1COCCN1CC#Cc1nccc(N2CCCN(c3cc(-c4ccccc4O)nnc3N)CC2)n1 [Compound P-316]"
result_value = "500 to 5000 nM"

[[record]]
molecule = "CC1CC(C)N1CC#Cc1cc(N2CCN(c3cc(-c4ccccc4O)nnc3N)CC[C@H]2C)ccn1 (stereo partly drawn) [Compound P-418]"
result_value = "< 50 nM"

[[record]]
molecule = "Nc1nnc(-c2ccccc2O)cc1N1CCN(c2ccnc(C#CCNC(=O)c3cc4ccc(F)cc4o3)n2)CC1 [Compound P-52]"
result_value = "50 to 500 nM"

[[record]]
molecule = "Nc1nnc(-c2ccccc2O)cc1N1CCCN(c2ccnc(C#CCN3CCOC4(CCCC4)C3)n2)CC1 [Compound P-370]"
result_value = "50 to 500 nM"

[[record]]
molecule = "CN(C)CC#Cc1nccc(N2CC3CC(Oc4cc(-c5ccccc5O)nnc4N)CC3C2)n1 (stereo not drawn) [Compound P-222]"
result_value = "50 to 500 nM"

[[record]]
molecule = "C[C@H]1CN(c2ccnc(C#CCN3CCCCC3)n2)CCN1c1cc(-c2ccccc2O)nnc1N [Compound P-319]"
result_value = "< 50 nM"

[[record]]
molecule = "C[C@@H]1CCN(c2cc(-c3ccccc3O)nnc2N)CCN1c1cc(C#CCN2CCCCC2)ncc1F [Compound P-414]"
result_value = "50 to 500 nM"

[[record]]
molecule = "Nc1nnc(-c2ccccc2O)cc1OC1CC2CN(c3ccnc(C#CCN4CCC4)n3)CC2C1 (stereo not drawn) [Compound P-197]"
result_value = "500 to 5000 nM"

[[record]]
molecule = "C/C=C/c1nccc(N2CCCN(c3cc(-c4ccccc4O)nnc3N)CC2)n1 [Compound P-158]"
result_value = "50 to 500 nM"


All figures here come from patent US20260265238A1.
